# test.target: AAV8 (adeno-associated virus serotype 8)
# experimental.details: SPR, AAV on CM5 chip
Kd by entry:
observed.property: Kd (nM)

1. A4-C4 (bispecific antibody) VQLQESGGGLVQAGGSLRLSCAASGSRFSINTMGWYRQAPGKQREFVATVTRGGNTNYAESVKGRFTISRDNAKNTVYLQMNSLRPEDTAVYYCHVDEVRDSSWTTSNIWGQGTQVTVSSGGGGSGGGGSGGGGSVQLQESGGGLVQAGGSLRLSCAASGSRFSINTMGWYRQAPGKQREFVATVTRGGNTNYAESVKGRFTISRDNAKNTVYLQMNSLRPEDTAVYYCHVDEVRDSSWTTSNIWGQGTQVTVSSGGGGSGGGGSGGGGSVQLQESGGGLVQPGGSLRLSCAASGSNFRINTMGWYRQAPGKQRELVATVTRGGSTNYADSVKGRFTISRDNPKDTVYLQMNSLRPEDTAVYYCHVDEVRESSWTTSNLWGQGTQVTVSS: 2.36
2. A4-C9 (bispecific antibody) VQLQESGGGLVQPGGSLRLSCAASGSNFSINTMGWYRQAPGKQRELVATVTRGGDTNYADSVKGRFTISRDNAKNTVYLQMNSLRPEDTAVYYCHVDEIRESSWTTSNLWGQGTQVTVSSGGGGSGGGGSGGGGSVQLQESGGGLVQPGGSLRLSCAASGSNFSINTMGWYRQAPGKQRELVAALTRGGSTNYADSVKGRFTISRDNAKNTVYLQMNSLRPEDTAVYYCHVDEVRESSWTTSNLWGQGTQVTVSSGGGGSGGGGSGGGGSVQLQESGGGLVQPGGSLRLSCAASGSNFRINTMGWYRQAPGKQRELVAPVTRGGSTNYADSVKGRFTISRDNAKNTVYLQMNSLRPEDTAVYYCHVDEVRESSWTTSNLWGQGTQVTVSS: 1.14
